test details: Membrane permeability test using Caco-2 cells with preincubation
Type: in vitro ADME
stated conditions: Caco-2; preincubation 20 to 24 hours; Apical FaSSIF/HBSS pH 6.0, Basal HBSS 4% BSA pH 7.4; 180 minutes; read-out: Caco2 Papp
Positions of bridges follow the written chain, without caps; N, C: chain ends. Non-standard residues stand in square brackets, D forms with d. Residues, ends and D or L forms follow the SMILES beside them. *: point of attachment. NMeF = CN[C@@H](Cc1ccccc1)C(=O)O; NMeT = CN[C@H](C(=O)O)[C@@H](C)O; NMeD = CN[C@@H](CC(=O)O)C(=O)O; NMeL = CN[C@@H](CC(C)C)C(=O)O; NMeV = CN[C@H](C(=O)O)C(C)C; NMeAbu = CC[C@H](NC)C(=O)O; NMeA = CN[C@@H](C)C(=O)O; Piperidide = C1CCN(*)CC1; NBuGly = CCCCNCC(=O)O; Sar = CNCC(=O)O; tBu = CC(C)(C)*
value kind: Papp A→B (×10⁻⁶ cm/s)

• CCCCN1CC(=O)N(C)[C@@H](Cc2ccccc2)C(=O)N[C@@H](CC(C)C)C(=O)N(C)[C@@H](C(C)C)C(=O)N(C)[C@@H](C)C(=O)N[C@@H](COC(C)(C)C)C(=O)N(C)[C@@H](CC)C(=O)N(C)[C@H](C(=O)N2CCCCC2)CC(=O)N(C)CC(=O)N(C)[C@@H](Cc2ccccc2)C(=O)N[C@@H]([C@@H](C)CC)C(=O)N(C)[C@@H](CC(C)C)C(=O)N(C)[C@@H]([C@@H](C)O)C1=O [pd168] ([Sar][NMeF]I[NMeL][NMeT][NBuGly][NMeF]L[NMeV][NMeA]S(tBu)[NMeAbu][NMeD]-Piperidide; lactam N-13) = 1.11

====

test details: Membrane permeability test using Caco-2 cells with preincubation
Format: in vitro ADME
stated conditions: Caco-2; preincubation 20 to 24 hours; Apical FaSSIF/HBSS pH 6.0, Basal HBSS 4% BSA pH 7.4; 180 minutes; read-out: Caco2 Papp
Positions of bridges follow the written chain, without caps; N, C: chain ends. Non-standard residues stand in square brackets, D forms with d. Residues, ends and D or L forms follow the SMILES beside them. *: point of attachment. NMeF = CN[C@@H](Cc1ccccc1)C(=O)O; hPhe = N[C@@H](CCc1ccccc1)C(=O)O; NMeD = CN[C@@H](CC(=O)O)C(=O)O; NMeL = CN[C@@H](CC(C)C)C(=O)O; NMeV = CN[C@H](C(=O)O)C(C)C; NMeA = CN[C@@H](C)C(=O)O; Piperidide = C1CCN(*)CC1; Sar = CNCC(=O)O
value kind: Papp A→B (×10⁻⁶ cm/s)

• CC[C@H](C)[C@@H]1NC(=O)CN(C)C(=O)C[C@@H](C(=O)N2CCCCC2)N(C)C(=O)[C@H](CC(C)C)NC(=O)[C@H](CC(C)C)N(C)C(=O)[C@H]([C@@H](C)O)NC(=O)[C@H](Cc2ccccc2)N(C)C(=O)[C@H](CC(C)C)NC(=O)[C@H](C(C)C)N(C)C(=O)[C@H](C)N(C)C(=O)[C@H](CC(C)C)N(C)C(=O)[C@H](CCc2ccccc2)NC(=O)[C@H](CC(C)C)N(C)C1=O [pd160] ([Sar]I[NMeL][hPhe][NMeL][NMeA][NMeV]L[NMeF]T[NMeL]L[NMeD]-Piperidide; lactam N-13) = 0.06
